These data points were gathered from paper PMC6299220.

Kindly supply the reported MIC values for the records listed here.
Tested on: M. tuberculosis DRM167-16x6 (KasA I122S)
Format: cell-based, Mycobacterium tuberculosis

The molecule identified as COc1nc2ccc(Br)cc2cc1[C@@H](c1ccccc1)[C@@](O)(CCN(C)C)c1cccc2ccccc12 registered its MIC at 0.5 µM

The molecule identified as CCCCS(=O)(=O)Nc1ccc2cnn(C)c2c1 registered its MIC at 50 µM

The molecule identified as O=[N+]([O-])c1cn2c(n1)OC[C@@H](OCc1ccc(OC(F)(F)F)cc1)C2 registered its MIC at 0.1 µM

The molecule identified as NNC(=O)c1ccncc1 registered its MIC at 0.19 µM

The molecule identified as CCc1cc(C(N)=S)ccn1 [ETH, ethionamide] registered its MIC at 12.5 µM

The molecule identified as CC(C)=CCC/C(C)=C/CNCCNC1C2CC3CC(C2)CC1C3 (stereo not drawn) registered its MIC at 0.4 µM

The molecule identified as COc1c(N2C[C@@H]3CCCN[C@@H]3C2)c(F)cc2c(=O)c(C(=O)O)cn(C3CC3)c12 registered its MIC at 0.03 µM

The molecule identified as CO[C@H]1/C=C/O[C@@]2(C)Oc3c(C)c(O)c4c(O)c(c(/C=N/N5CCN(C)CC5)c(O)c4c3C2=O)NC(=O)/C(C)=C\C=C\[C@H](C)[C@H](O)[C@@H](C)[C@@H](O)[C@@H](C)[C@H](OC(C)=O)[C@@H]1C registered its MIC at 0.001 µM

The molecule identified as CC[C@@H](CO)NCCN[C@@H](CC)CO registered its MIC at 1.56 µM
